Consider the following compounds; for each one, report its EC50.
# TARGET: GLP-1R (Homo sapiens, UniProt P43220)
# Sequence (P43220 24-463): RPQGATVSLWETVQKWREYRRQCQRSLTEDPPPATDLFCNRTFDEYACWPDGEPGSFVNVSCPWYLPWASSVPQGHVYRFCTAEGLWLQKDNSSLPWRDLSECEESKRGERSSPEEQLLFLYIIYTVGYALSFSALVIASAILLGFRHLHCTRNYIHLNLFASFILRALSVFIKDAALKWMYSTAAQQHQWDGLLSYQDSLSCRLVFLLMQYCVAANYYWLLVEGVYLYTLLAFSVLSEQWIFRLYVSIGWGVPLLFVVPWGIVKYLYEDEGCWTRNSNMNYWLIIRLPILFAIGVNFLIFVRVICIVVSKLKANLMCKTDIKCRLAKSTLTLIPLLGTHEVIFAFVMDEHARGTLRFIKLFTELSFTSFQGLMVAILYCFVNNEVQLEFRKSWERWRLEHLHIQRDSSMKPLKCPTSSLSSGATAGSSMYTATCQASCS
# ASSAY_PROCEDURE: GLP-1R agonist cAMP stimulation assay (HTRF cAMP)
# MEASUREMENT_SETUP: HEK293 cell line expressing GLP-1 target; HTRF cAMP agonist mode, 30 min at RT
Give bare numbers, in nM.

1) CC(C)c1n[nH]c2ccc(NC(=O)c3ccc4c(c3)nc(CN3CCC(c5cccc(OCc6ccc(Cl)cc6F)n5)CC3)n4C[C@@H]3CCO3)cc12 [Compound 83] = 3.76

Value sought for every listed compound: EC50.
1. Cc1cc(NC(=O)c2ccc3c(c2)nc(CN2CCC(c4cccc(OCc5ccc(C#N)cc5F)n4)CC2)n3C[C@@H]2CCO2)cc2c(C(F)F)n[nH]c12 [Compound 132]
2. CNS(=O)(=O)Cc1ccc2[nH]cc(CCNC(=O)c3ccc4c(c3)nc(CN3CCC(c5cccc(OCc6ccc(Cl)cc6F)n5)CC3)n4CCOC)c2c1 [Compound 39]
3. Cc1cc(NC(=O)c2ccc3c(c2)nc(CN2CCC(c4cccc(OCc5ccc(C#N)cc5F)n4)CC2)n3C[C@@H]2CCO2)cc2c1NC(=O)C21CC1 [Compound 124]
4. Cc1n[nH]c2c(F)cc(C(=O)Nc3ccc4c(c3)nc(CN3CCC(c5cccc6c5OC(C)(c5ccc(Cl)cc5F)O6)CC3)n4CC3CCO3)cc12 (centres unmarked) [Compound 340]

1: 0.74; 2: 286; 3: 0.17; 4: 0.28

Value sought for every listed compound: EC50.
1. Cc1n[nH]c2cnc(NC(=O)c3ccc4c(c3)nc(CN3CCC(c5cccc(OCc6ccc(Cl)cc6F)n5)CC3)n4C[C@@H]3CCO3)nc12 [Compound 195]
2. Cc1n[nH]c2c(C(F)(F)F)cc(NC(=O)c3ccc4c(c3)nc(CN3CCC(c5cccc(OCc6ccc(Cl)cc6F)n5)CC3)n4C[C@@H]3CCO3)cc12 [Compound 106]
3. Cc1n[nH]c2c(Cl)cc(C(=O)Nc3ccc4c(c3)nc(CN3CC=C(c5cccc6c5OC(C)(c5ccc(Cl)cc5F)O6)CC3)n4CC3CCO3)cc12 (centres unmarked) [Compound 308]
4. Cc1cc(C(=O)Nc2ccc3c(c2)nc(CN2CC=C(c4cccc5c4OC(C)(c4ccc(Cl)cc4F)O5)CC2)n3C[C@@H]2CCO2)cc2[nH]c(=O)[nH]c12 (some centres unmarked) [Compound 309]
5. O=C(Nc1ccc2ncsc2c1)c1ccc2c(c1)nc(CN1CCC(c3cccc(OCc4ccc(Cl)cc4F)n3)CC1)n2C[C@@H]1CCO1 [Compound 98]
6. Cc1n[nH]c2c(C)cc(NC(=O)c3ccc4c(c3)nc(CN3CCC(c5cccc(OCc6cc(F)c(C#N)s6)n5)CC3)n4C[C@@H]3CCO3)cc12 [Compound 376]

2.31
2.31
3.12
0.87
16.9
0.98
